Assay: Thermodynamic solubility in buffer at 24 h (HPLC of supernatant)
Assay type: physicochemical
Conditions: 0.2 m hcl/kcl, pH 1.26, 0.2 M HCl/KCl, initial pH 1.22, 24 h pH 1.26, input 31 mM, ambient temperature; as free-base
Source text: The solubility of a compound may be assessed by adding a surplus of the compound to a volume of solvent such that some of the compound is not dissolved, then isolating the non-dissolved compound and measuring the amount. The solubility of a compound may alternatively be assessed by adding a surplus of the compound to a volume of solvent such that some of the compound is not dissolved, and then measure the amount of compound in solution. […]
Counter-ions that a name gives are not always drawn.
PARAMETER_MEASURED: solubility at 24 h

query: Give recorded solubility at 24 h. NC(N)=N/N=C/C=C/c1cccn1-c1ccccc1[N+](=O)[O-] [Tosylate Salt Pattern 1]
result: 0.31 mM

====

test: Initial polymorphism assessment: solubility of AP1189 freebase in solvent systems (aliquot addition); format: physicochemical; settings: organic solvent or mixture; Ethyl Acetate; ambient, gently heated to ca. 40 °C if solid remained
PARAMETER_MEASURED: solubility

query: Give recorded solubility. "NC(N)=N/N=C/C=C/c1cccn1-c1ccccc1[N+](=O)[O-]"
result: < 7000 µg/mL

====

Experiment: Initial polymorphism assessment: solubility of AP1189 freebase in solvent systems (aliquot addition)
Format: physicochemical
Conditions: organic solvent or mixture; Dichloromethane; ambient, gently heated to ca. 40 °C if solid remained
Protocol: An initial polymorphism assessment was carried out in order to identify any potential alternate forms. The initial polymorphism assessment was carried out as follows: To ca. 7 mg of freebase Pattern 1 from DCM evaporation the appropriate solvent system was added in aliquots of 50 μL and if solid remained the vial was gently heated to ca. 40 °C to aid dissolution. […]
PARAMETER_MEASURED: solubility

query: Give recorded solubility. NC(N)=N/N=C/C=C/c1cccn1-c1ccccc1[N+](=O)[O-] [AP1189]
result: < 7000 µg/mL

====

assay: Initial polymorphism assessment: solubility of AP1189 freebase in solvent systems (aliquot addition); assay type: physicochemical; conditions: organic solvent or mixture; Acetonitrile; ambient, gently heated to ca. 40 °C if solid remained
PARAMETER_MEASURED: solubility

query: Give recorded solubility. NC(N)=N/N=C/C=C/c1cccn1-c1ccccc1[N+](=O)[O-] [AP1189]
result: ≥ 27 mg/mL
